For each of the compounds below, state its TGI.
- Test system: MSTO-211H xenograft
- MEASUREMENT DESCRIPTION: Inhibition of mouse xenograft MSTO-211H tumors
- Assay type: in vivo, BALB/c nude mice
- CONDITION PARAMETERS: day 27; 12.5 mg/kg, PO, BID; TGI = [1 − (Ti − T0)/ (Vi − V0)] × 100
One number for each entry, in %.

// worked examples, TGI included
COc1cc(C2=CCC(C(F)(F)F)CC2)c2ncc(C(=O)N[C@H](C)CO)cc2c1 (some centres unmarked); 132.4
COc1cc(C2=CCC(C(F)(F)F)CC2)c2ncc(C(=O)N[C@H](C)c3ncco3)cc2c1 (some centres unmarked); 130.2
C[C@@H](NC(=O)c1cnc2c(C3=CCC4(CC3)CC4)cccc2c1)c1ncco1; 90.7
C[C@H](CO)NC(=O)c1cnc2c(C3=CCC(C(F)(F)F)CC3)cccc2c1 (some centres unmarked); 113.6

Now for another entry.
Fill in: MSTO-211H xenograft TGI for COC[C@H](CO)NC(=O)c1cnc2c(C3=CCC(C(F)(F)F)CC3)cccc2c1 (some centres unmarked) = 119.1

* * *

- SUBJECT OF TEST: TEAD1 (Homo sapiens, UniProt P28347)
- Sequence (P28347 whole entry): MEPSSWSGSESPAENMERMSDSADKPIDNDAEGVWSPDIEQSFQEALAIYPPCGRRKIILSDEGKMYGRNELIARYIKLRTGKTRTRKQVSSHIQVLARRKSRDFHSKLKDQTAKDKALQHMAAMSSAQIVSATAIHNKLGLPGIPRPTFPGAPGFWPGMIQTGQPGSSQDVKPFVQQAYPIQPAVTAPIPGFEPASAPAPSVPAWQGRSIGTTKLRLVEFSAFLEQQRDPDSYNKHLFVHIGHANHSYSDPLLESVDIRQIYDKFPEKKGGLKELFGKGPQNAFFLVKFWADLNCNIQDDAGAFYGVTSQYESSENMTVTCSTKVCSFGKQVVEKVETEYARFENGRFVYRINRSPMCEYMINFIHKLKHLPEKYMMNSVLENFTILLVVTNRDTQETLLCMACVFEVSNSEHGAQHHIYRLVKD
- MEASUREMENT DESCRIPTION: TEAD thermal shift assay (TSA)
- Assay type: binding
- CONDITION PARAMETERS: ratio of protein to compound 1:3
QUANTITY MEASURED: TEAD1 ΔTm (°C)
Answers are plain numbers, in °C.

// worked examples, TEAD1 ΔTm included
O=C(NCc1ncco1)c1cnc2c(C3=CCC(C(F)(F)F)CC3)cccc2c1 (stereo not drawn) [Compound 11]; 11.5
C[C@H](CO)NC(=O)c1cnc2c(C3=CCC(C(F)(F)F)CC3)cccc2c1 (stereo partly drawn) [Compound 7]; 11
CNS(=O)(=O)c1ccc(Nc2ccc(C(F)(F)F)cc2)c(-c2cn(C)cn2)c1 [Compound 1-1, reference compound]; 8
C[C@H](NC(=O)c1cnc2c(C3=CC[C@@H](C(F)(F)F)CC3)cccc2c1)c1ncco1 (single isomer, unassigned) [Compound 19]; 12
C[C@H](CO)NC(=O)c1cnc2c(C3=CCC(C(F)(F)F)CC3)cccc2c1 (single isomer, unassigned) [Compound 81]; 10
O=C(NCc1ccn[nH]1)c1cnc2c(C3=CCC(C(F)(F)F)CC3)cccc2c1 (stereo not drawn) [Compound 47]; 11

Dear colleague, could you please provide TEAD1 ΔTm for the molecules listed below?
1. C[C@H](NC(=O)c1cnc2c(C3=CC[C@@H](C(F)(F)F)CC3)cccc2c1)c1ncco1 (single isomer, unassigned) [Compound 20]
2. C[C@H](NC(=O)c1ccc2c(-c3ccc(C(F)(F)F)cc3)cccc2c1)c1cccc(N)n1 [Compound 1-4, reference compound]
3. COc1cc(C2=CCC(C(F)(F)F)CC2)c2ncc(C(=O)N[C@H](C)c3ncco3)cc2c1 (stereo partly drawn) [Compound 109]

[out]
1. 13
2. 12
3. 14

Dear colleague, could you please provide TEAD1 ΔTm for the molecules listed below?
1. C[C@H](NC(=O)c1cnc2c(C3=CCC(C(F)(F)F)CC3)cccc2c1)c1ccccn1 (stereo partly drawn) [Compound 2]
2. COc1cc(C2=CCC(C(F)(F)F)CC2)c2ncc(C(=O)N[C@H](C)CO)cc2c1 (stereo partly drawn) [Compound 110]
3. COC[C@H](CO)NC(=O)c1cnc2c(C3=CCC(C(F)(F)F)CC3)cccc2c1 (stereo partly drawn) [Compound 62]

[out]
1: 12; 2: 16; 3: 11

* * *

- SUBJECT OF TEST: TEAD2 (Homo sapiens, UniProt Q15562)
- Sequence (Q15562 whole entry): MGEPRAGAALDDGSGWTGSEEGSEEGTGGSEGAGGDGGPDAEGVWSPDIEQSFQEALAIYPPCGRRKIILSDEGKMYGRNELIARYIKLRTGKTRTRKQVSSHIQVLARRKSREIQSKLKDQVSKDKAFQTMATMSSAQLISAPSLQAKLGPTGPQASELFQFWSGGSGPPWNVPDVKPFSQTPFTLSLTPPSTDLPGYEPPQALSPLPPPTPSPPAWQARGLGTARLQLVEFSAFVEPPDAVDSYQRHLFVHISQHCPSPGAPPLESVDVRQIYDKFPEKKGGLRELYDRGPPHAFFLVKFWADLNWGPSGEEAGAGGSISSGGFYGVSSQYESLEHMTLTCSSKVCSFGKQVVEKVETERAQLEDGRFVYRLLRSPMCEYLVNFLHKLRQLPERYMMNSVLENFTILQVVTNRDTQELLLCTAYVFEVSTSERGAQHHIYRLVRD
- MEASUREMENT DESCRIPTION: TEAD thermal shift assay (TSA)
- Type: binding
- CONDITION PARAMETERS: ratio of protein to compound 1:1
For each of the molecules below, state its TEAD2 ΔTm.

// worked examples, TEAD2 ΔTm included
C[C@H](NC(=O)c1ccc2c(-c3ccc(C(F)(F)F)cc3)cccc2c1)c1cccc(N)n1 [Compound 1-4, reference compound]; 5 °C
C[C@H](NC(=O)c1cnc2c(C3=CCC(C(F)(F)F)CC3)cccc2c1)c1ccccn1 (stereo partly shown); 1 °C
COc1cc(C2=CCC(C(F)(F)F)CC2)c2ncc(C(=O)N[C@H](C)CO)cc2c1 (stereo partly shown); 2 °C
COC[C@H](CO)NC(=O)c1cnc2c(C3=CCC(C(F)(F)F)CC3)cccc2c1 (stereo partly shown); 3 °C
O=C(NCc1ccn[nH]1)c1cnc2c(C3=CCC(C(F)(F)F)CC3)cccc2c1 (stereo not shown); 2 °C
C[C@H](CO)NC(=O)c1cnc2c(C3=CCC(C(F)(F)F)CC3)cccc2c1 (single isomer, unassigned) [Compound 81]; 2 °C

Now for another entry.
Memo: COc1cc(C2=CCC(C(F)(F)F)CC2)c2ncc(C(=O)N[C@H](C)c3ncco3)cc2c1 (stereo partly shown) , reported TEAD2 ΔTm: 3 °C

* * *

- SUBJECT OF TEST: UniProt Q99594
- MEASUREMENT DESCRIPTION: TEAD thermal shift assay (TSA)
- Type: binding
- CONDITION PARAMETERS: ratio of protein to compound 1:3
For each of the compounds below, state its TEAD3 ΔTm.
Numbers only, in °C.

C[C@H](CO)NC(=O)c1cnc2c(C3=CCC(C(F)(F)F)CC3)cccc2c1 (single isomer, unassigned) [Compound 81]; 5
C[C@H](NC(=O)c1cnc2c(C3=CC[C@@H](C(F)(F)F)CC3)cccc2c1)c1ncco1 (single isomer, unassigned) [Compound 20]; 4.5
C[C@H](NC(=O)c1ccc2c(-c3ccc(C(F)(F)F)cc3)cccc2c1)c1cccc(N)n1 [Compound 1-4, reference compound]; 9

Memo: COc1cc(C2=CCC(C(F)(F)F)CC2)c2ncc(C(=O)N[C@H](C)CO)cc2c1 (stereo partly shown) [Compound 110] , reported TEAD3 ΔTm: 3

* * *

- SUBJECT OF TEST: TEAD3 (Homo sapiens)
- Sequence (Q99594 whole entry): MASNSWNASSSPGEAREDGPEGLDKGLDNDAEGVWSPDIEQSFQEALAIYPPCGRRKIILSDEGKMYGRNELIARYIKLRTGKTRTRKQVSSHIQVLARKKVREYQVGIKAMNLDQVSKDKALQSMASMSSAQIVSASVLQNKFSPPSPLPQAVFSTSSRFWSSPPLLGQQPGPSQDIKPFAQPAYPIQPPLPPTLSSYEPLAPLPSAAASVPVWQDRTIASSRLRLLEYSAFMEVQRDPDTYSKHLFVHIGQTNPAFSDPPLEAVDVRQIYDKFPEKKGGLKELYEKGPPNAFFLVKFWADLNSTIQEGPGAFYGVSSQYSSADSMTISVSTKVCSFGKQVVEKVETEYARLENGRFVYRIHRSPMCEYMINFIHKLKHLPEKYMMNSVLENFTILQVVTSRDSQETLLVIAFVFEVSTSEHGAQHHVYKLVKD
- MEASUREMENT DESCRIPTION: TEAD thermal shift assay (TSA)
- Assay type: binding
- CONDITION PARAMETERS: ratio of protein to compound 1:3
QUANTITY MEASURED: TEAD3 ΔTm (°C)
One number for each entry, in °C.

COC[C@H](CO)NC(=O)c1cnc2c(C3=CCC(C(F)(F)F)CC3)cccc2c1 (stereo partly shown); 2
O=C(NCc1ccn[nH]1)c1cnc2c(C3=CCC(C(F)(F)F)CC3)cccc2c1 (stereo not shown); 3
O=C(NCc1ncco1)c1cnc2c(C3=CCC(C(F)(F)F)CC3)cccc2c1 (stereo not shown); 3

Now for another entry.
Memo: COc1cc(C2=CCC(C(F)(F)F)CC2)c2ncc(C(=O)N[C@H](C)c3ncco3)cc2c1 (stereo partly shown) , reported TEAD3 ΔTm: 3

* * *

- SUBJECT OF TEST: TEAD4 (Homo sapiens)
- Sequence (Q15561 whole entry): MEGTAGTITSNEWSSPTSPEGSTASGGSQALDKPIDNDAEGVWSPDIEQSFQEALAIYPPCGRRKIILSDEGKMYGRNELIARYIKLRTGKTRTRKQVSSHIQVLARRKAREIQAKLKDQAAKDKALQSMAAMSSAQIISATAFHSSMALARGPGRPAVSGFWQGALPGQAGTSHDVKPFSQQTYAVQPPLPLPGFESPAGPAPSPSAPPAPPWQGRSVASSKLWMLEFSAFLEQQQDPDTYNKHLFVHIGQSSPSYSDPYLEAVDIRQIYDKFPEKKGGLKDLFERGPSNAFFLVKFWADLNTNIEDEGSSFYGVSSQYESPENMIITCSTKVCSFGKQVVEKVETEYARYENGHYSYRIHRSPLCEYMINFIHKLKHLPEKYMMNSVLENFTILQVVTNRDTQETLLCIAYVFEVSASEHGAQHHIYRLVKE
- MEASUREMENT DESCRIPTION: TEAD thermal shift assay (TSA)
- Format: binding
- CONDITION PARAMETERS: ratio of protein to compound 1:3
- Description: Thermal shift assay (TSA) is a biophysical method to evaluate stability of proteins with change in temperature. The assay measures thermal denaturation temperature in varying conditions such as different drug concentration. […] SYPRO Orange binds non-specifically to hydrophobic surfaces, and water strongly quenches its fluorescence. When the protein unfolds, the exposed hydrophobic surfaces bind the dye, resulting in an increase in fluorescence by excluding water. […]
QUANTITY MEASURED: TEAD4 ΔTm

// worked examples, TEAD4 ΔTm included
C[C@H](CO)NC(=O)c1cnc2c(C3=CCC(C(F)(F)F)CC3)cccc2c1 (some centres unmarked) [Compound 7]; 3 °C
C[C@H](NC(=O)c1cnc2c(C3=CC[C@@H](C(F)(F)F)CC3)cccc2c1)c1ncco1 (single isomer, unassigned) [Compound 19]; 3 °C
O=C(NCc1ncco1)c1cnc2c(C3=CCC(C(F)(F)F)CC3)cccc2c1 (centres unmarked) [Compound 11]; 2.5 °C
C[C@H](NC(=O)c1cnc2c(C3=CC[C@@H](C(F)(F)F)CC3)cccc2c1)c1ncco1 (single isomer, unassigned) [Compound 20]; 3 °C
COc1cc(C2=CCC(C(F)(F)F)CC2)c2ncc(C(=O)N[C@H](C)c3ncco3)cc2c1 (some centres unmarked) [Compound 109]; 2 °C
C[C@H](CO)NC(=O)c1cnc2c(C3=CCC(C(F)(F)F)CC3)cccc2c1 (single isomer, unassigned) [Compound 81]; 7 °C
O=C(NCc1ccn[nH]1)c1cnc2c(C3=CCC(C(F)(F)F)CC3)cccc2c1 (centres unmarked) [Compound 47]; 3 °C

Fill in: TEAD4 (Homo sapiens) TEAD4 ΔTm for CNS(=O)(=O)c1ccc(Nc2ccc(C(F)(F)F)cc2)c(-c2cn(C)cn2)c1 [Compound 1-1, reference compound] = 1 °C

* * *

- Tested on: BHY cells
- MEASUREMENT DESCRIPTION: BHY proliferation and cell viability assay (CTG)
- Type: cell-based
- CONDITION PARAMETERS: BHY cell line, 144 hours
- Procedure: BHY cells were trypsinised, counted and plated at the specified cell density in 200 μl of growth media in 96 well flat bottom tissue culture treated plates. […] Following compound treatment, the remaining viable cells were detected using the Promega CellTiter-Glo 2.0 assay as follows: 150 μl of media was removed from each of the wells to be assayed and 100 μl of room temperature CellTiter-Glo 2.0 reagent was added. […] Luminescence at 545 nm was read using a BMG CLARIOstar plate reader. […]
QUANTITY MEASURED: EC50

// worked examples, EC50 included
C[C@H](NC(=O)c1cnc2c(C3=CC[C@@H](C(F)(F)F)CC3)cccc2c1)c1ncco1 (single isomer, unassigned); < 200 nM
C[C@H](CO)NC(=O)c1cnc2c(C3=CCC(C(F)(F)F)CC3)cccc2c1 (single isomer, unassigned); 200 to 1000 nM

Now for another entry.
Memo: COC[C@H](CO)NC(=O)c1cnc2c(C3=CCC(C(F)(F)F)CC3)cccc2c1 (single isomer, unassigned) , reported EC50: < 200 nM
